assay: Partition coefficient, log D of compound at pH 7.4 measured after 24 hrs by LCMS analysis; format: physicochemical; conditions: octanol/water, pH 7.4, 24 h
readout: logD
Numbers only.

INSERT INTO measurements (smiles_entry, quantitative_readout) VALUES
  ('CCn1cc(C)c2c([C@H](N)c3ccc(C(F)(F)F)nc3)n(C)nc2c1=O', 1.82);

For every record below, what is its logD?
1. CC[C@@](O)(c1cnc(C(F)(F)F)c(Cl)c1)c1c2ccn(C3CC3)c(=O)c2nn1C
2. CC[C@@](N)(c1cnc(C(F)(F)F)c(Cl)c1)c1c2ncn(C3CC3)c(=O)c2nn1C
3. Cn1nc2c(=O)n(C3CC3)ccc2c1[C@](O)(c1cnc(C(F)(F)F)c(Cl)c1)C(F)(F)F

1. 2.4
2. 3.44
3. 2.3
